Test: Human HepG2 cell viability assay in 384 well format
Type: toxicity, cell-based
Design: dose 125 nL, time 70.5 hour; concentration not given beside the values
Details: HepG2 cells, read-out: Inhibition
Each record here notes measured cytotoxicity at 70.5 h.
parameter: cytotoxicity at 70.5 h (%)

{"compound": "Cc1ccc(C)c(NC(=O)c2coc(C)n2)c1", "readingUnit": "%", "assayValue": -6.52}
{"compound": "c1ncn(CC2CCCN(Cc3cn4ccsc4n3)C2)n1 (centres undefined)", "readingUnit": "%", "assayValue": -5.75}
{"compound": "C[C@H]1C[C@H]2CN(C(=O)c3ccncn3)CC[C@H]2O1", "readingUnit": "%", "assayValue": -0.543}
{"compound": "O=c1c2ccccc2nc2n1C(CSc1ccc(F)cc1)CN2 (centres undefined)", "readingUnit": "%", "assayValue": 28.4}
{"compound": "CCC(CC)NC(=O)c1cccnc1N1CCCC1c1ccccn1 (centres undefined)", "readingUnit": "%", "assayValue": 16.4}
{"compound": "CCc1ocnc1C(=O)N1CCOCC1CC(=O)c1ccccc1 (centres undefined)", "readingUnit": "%", "assayValue": -7.1}
{"compound": "CCSc1ccc(NC(=O)NC(C)c2c(C)nn(C)c2C)cn1 (centres undefined)", "readingUnit": "%", "assayValue": -13.5}
{"compound": "COCCN1CCC2(CC1)CC(NC(=O)CN(C)C)c1ccccc1O2 (centres undefined)", "readingUnit": "%", "assayValue": -6.88}
{"compound": "Cc1nc(N2CCCC2)nc2c1CCN(C(=O)NC1CCCC1)CC2", "readingUnit": "%", "assayValue": 1.4}
{"compound": "O=C(Cn1cc(C2CC2)nn1)N(Cc1ccco1)CC1CCCO1 (centres undefined)", "readingUnit": "%", "assayValue": 10.2}
{"compound": "CC(C)C(NC(=O)c1ccccc1F)C(=O)Nc1cnn(C)c1 (centres undefined)", "readingUnit": "%", "assayValue": -13.2}
{"compound": "CC(C)N(Cc1ccc(C#N)cc1)Cc1nnsc1Cl", "readingUnit": "%", "assayValue": -15.5}
{"compound": "CCCOc1cc(CNC(=O)Nc2ccc(C)cc2)ccn1", "readingUnit": "%", "assayValue": -2.77}
{"compound": "CCN(CC)C(=O)CCCNC(=O)Cc1nc(-c2ccco2)oc1C", "readingUnit": "%", "assayValue": -12.3}
{"compound": "CCc1n[nH]c(C2CN(C(=O)c3ccc(NC4CC4)nc3)CCO2)n1 (centres undefined)", "readingUnit": "%", "assayValue": -7.92}
{"compound": "OC(CN1CCCc2cc(OC(F)F)ccc21)Cn1cccn1 (centres undefined)", "readingUnit": "%", "assayValue": 12.9}
{"compound": "O=C(C1CCC1)N1CCC(c2ncc3c(n2)CCNC3)CC1", "readingUnit": "%", "assayValue": -6.1}
{"compound": "CN(Cc1ccc(Br)s1)Cn1nc(-c2ccc(F)cc2)oc1=O", "readingUnit": "%", "assayValue": -4.35}
{"compound": "CC(C)CC(O)C1CCN(C(=O)c2ccc(C(C)C)[nH]c2=O)CC1 (centres undefined)", "readingUnit": "%", "assayValue": 18.9}
{"compound": "CCC(C(=O)NCC1=CCN(C)CC1)c1ccccc1 (centres undefined)", "readingUnit": "%", "assayValue": 30}
{"compound": "Cn1ncc2c(=O)[nH]c(CN3CCCC3CC(C)(C)C)nc21 (centres undefined)", "readingUnit": "%", "assayValue": -4}
{"compound": "O=C(CN1C(=O)CCC1=O)NCc1nn(C2CCCC2)c2c1CCCC2", "readingUnit": "%", "assayValue": -2.19}
{"compound": "O=C(CCC(=O)N1CCCC1c1ccsc1)N1CCOCC1 (centres undefined)", "readingUnit": "%", "assayValue": -5.51}
{"compound": "Cc1ccsc1C1CC(=O)Nc2c1cnn2C(C)C (centres undefined)", "readingUnit": "%", "assayValue": -7.26}
{"compound": "FC(F)(F)COCCN1CCOC(Cn2cccn2)C1 (centres undefined)", "readingUnit": "%", "assayValue": -0.0607}
{"compound": "CCCN1CCc2[nH]cnc2C12CCN(C(=O)CCn1cccn1)CC2", "readingUnit": "%", "assayValue": -2.96}
{"compound": "CCN1C(=O)CCCC12CCCN(C(=O)c1cc(C)oc1C)C2 (centres undefined)", "readingUnit": "%", "assayValue": -9.36}
{"compound": "CCN1CC(CN(C)c2cc(C)nc(N)n2)Oc2ccccc21 (centres undefined)", "readingUnit": "%", "assayValue": 17.6}
{"compound": "CN(C)CC(=O)N1CC(c2nn(C)c3nccnc23)C1", "readingUnit": "%", "assayValue": -6.77}
{"compound": "Cc1cnc(NC(=O)CSC2CCc3ccccc3NC2=O)s1 (centres undefined)", "readingUnit": "%", "assayValue": 1.54}
{"compound": "Cc1nnc(CN(CCc2ccccc2)C2CCN(C)CC2)s1", "readingUnit": "%", "assayValue": -13.6}
{"compound": "COc1ccc(C(=O)NC2CC2)c(OC2CCN(CC3CC3)CC2)c1", "readingUnit": "%", "assayValue": -2.04}
{"compound": "N#CC1CCCN(c2ncnc3c2CCN(Cc2ccccc2)CC3)C1 (centres undefined)", "readingUnit": "%", "assayValue": 2.53}
{"compound": "O=C(c1ccccc1)C1CCN(C(=O)CC2COCCN2)CC1 (centres undefined)", "readingUnit": "%", "assayValue": 1.52}
{"compound": "Cc1csc(S(=O)(=O)N2CCN(C)C3(CCC(=O)N(C)CC3)C2)c1 (centres undefined)", "readingUnit": "%", "assayValue": -11.5}
{"compound": "COCCNC(=O)CN(C)Cc1ccc(F)cc1Cl", "readingUnit": "%", "assayValue": -10.1}
{"compound": "CC(C#N)CSc1ccccc1NCC(=O)Nc1ccccc1 (centres undefined)", "readingUnit": "%", "assayValue": 14.3}
{"compound": "Cc1cnn(CCC(=O)N2CCC3(CCC(=O)N(CC4CC4)C3)CC2)c1", "readingUnit": "%", "assayValue": -6.95}
{"compound": "O=C(c1cn(-c2ccccc2Cl)nn1)N1CCSCC1", "readingUnit": "%", "assayValue": 15.4}
{"compound": "Cc1ccc2[nH]c(=O)c(CNCCCN3CCOCC3)cc2c1", "readingUnit": "%", "assayValue": -8.68}
{"compound": "Cc1ccc(CNC(=O)NCc2cccnc2N(C)C)s1", "readingUnit": "%", "assayValue": -14.6}
{"compound": "CC(=O)NC1CCCN(C(=O)NCc2cccnc2N(C)C)C1 (centres undefined)", "readingUnit": "%", "assayValue": 4.39}
{"compound": "Cc1cccc(C(=O)N2CCN(C(=O)Cc3ccccn3)CC2)c1C", "readingUnit": "%", "assayValue": -2.92}
{"compound": "O=C(NCC1(O)CCC1)c1c(O)cc(F)cc1F", "readingUnit": "%", "assayValue": 13.9}
{"compound": "Cc1occc1C(=O)N1CCC2(CCN(Cc3nccs3)C2)CC1", "readingUnit": "%", "assayValue": -11}
{"compound": "CCNc1ccc(-c2ccnc3c2ccn3C)nn1", "readingUnit": "%", "assayValue": -5.15}
{"compound": "Cc1nc(C)n(CC2CN(Cc3noc(C4CC4)n3)CCO2)n1 (centres undefined)", "readingUnit": "%", "assayValue": -6.68}
{"compound": "N#Cc1ccc(N2CCCC2Cn2cccn2)nc1 (centres undefined)", "readingUnit": "%", "assayValue": -8.46}
{"compound": "CC(=O)N1CCOC(Cc2cccc(C(F)(F)F)c2)C1 (centres undefined)", "readingUnit": "%", "assayValue": -4.91}
